- System: Human immunodeficiency virus 1
- test.summary: Inhibitory activity against 103N strain of HIV-I in MT-4 cell was determined
- Format: functional, organism-based
- test.parameters: Human immunodeficiency virus 1, MT4
pIC50: −log10 of the molar value.
quantity.kind: pIC50

Here are 5 compounds together with their reported answers.
N#Cc1ccc(Nc2nc(N)nc(Oc3c(F)cc(F)cc3F)n2)cc1	7.06
Cc1cc(C)c(Sc2ncnc(Nc3ccc(C#N)cc3)n2)c(C)c1	8.52
N#Cc1ccc(Nc2nc(N)nc(Cc3ccccc3Cl)n2)cc1	6.40
N#Cc1ccc(Nc2nc(N)nc(Oc3c(Cl)cc(Cl)cc3Cl)n2)cc1	7.92
N#Cc1ccc(Nc2nc(N)nc(Oc3c(Cl)cccc3Cl)n2)cc1	7.09

a: COc1nc(Cc2c(Cl)cccc2Cl)nc(Nc2ccc(C#N)cc2)n1
b: CN(C)c1nc(Cc2c(Cl)cccc2Cl)nc(Nc2ccc(C#N)cc2)n1
Req: Select the item whose pIC50 value is smaller, choosing between a and b . State your choice using its label.
Resp: b
(b: 5.33, a: 6.64)

1: N#Cc1ccc(Nc2nc(Cc3c(Cl)cccc3Cl)nc(NO)n2)cc1
2: Cc1cc(C)c(Oc2ncnc(Nc3ccc(C#N)cc3)n2)c(C)c1
Req: Select the item whose pIC50 value is smaller, choosing between 1 and 2 . State your choice using its label.
Resp: 1

All values here come from ChEMBL document CHEMBL1133922.
